settings: 383 K, Capillary rise
Numbers after ± are expanded uncertainties.
Reported surface tension liquid-gas by item:
Reported Metric: surface tension liquid-gas

> print(dat)
                                   compound             reported.metric   endpoint.value
1  CCCCCCn1cc[n+](C)c1.[I-] [1-hexyl-3-methylimidazolium iodide]  surface tension liquid-gas  37.2 ± 1.1 mN/m
2  CCCCn1cc[n+](C)c1.F[P-](F)(F)(F)(F)F [1-butyl-3-methylimidazolium hexafluorophosphate]  surface tension liquid-gas  41.3 ± 1.2 mN/m
3  CCCCn1cc[n+](C)c1.[I-] [1-butyl-3-methylimidazolium iodide]  surface tension liquid-gas  46.3 ± 1.3 mN/m
4  CCCCCCCC[n+]1ccn(C)c1.[Cl-] [1-methyl-3-octylimidazolium chloride]  surface tension liquid-gas  27.4 ± 0.9 mN/m

* * *

conditions: 343 K, Capillary rise
Reported Metric: surface tension liquid-gas (mN/m)

> print(dat)
                                    compound             reported.metric  endpoint.value
 1  CCCCCCn1cc[n+](C)c1.F[P-](F)(F)(F)(F)F [1-hexyl-3-methylimidazolium hexafluorophosphate]  surface tension liquid-gas            40.2
 2  CCCCn1cc[n+](C)c1.F[P-](F)(F)(F)(F)F [1-butyl-3-methylimidazolium hexafluorophosphate]  surface tension liquid-gas            44.3
 3  CCCCCCn1cc[n+](C)c1.[I-] [1-hexyl-3-methylimidazolium iodide]  surface tension liquid-gas            40.1
 4  CCCCn1cc[n+](C)c1.[I-] [1-butyl-3-methylimidazolium iodide]  surface tension liquid-gas            49.4
 5  CCCCCCCC[n+]1ccn(C)c1.[Cl-] [1-methyl-3-octylimidazolium chloride]  surface tension liquid-gas            29.5
 6  CCCCn1cc[n+](C)c1.[Cl-] [1-butyl-3-methylimidazolium chloride]  surface tension liquid-gas            45.3
 7  CCCCn1cc[n+](C)c1.F[B-](F)(F)F [1-butyl-3-methylimidazolium tetrafluoroborate]  surface tension liquid-gas            40.9
 8  CCCCCCn1cc[n+](C)c1.[Cl-] [1-hexyl-3-methylimidazolium chloride]  surface tension liquid-gas            39.1
 9  CCCCCCn1cc[n+](C)c1.F[B-](F)(F)F [1-hexyl-3-methylimidazolium tetrafluoroborate]  surface tension liquid-gas            36.9
10  CCCCCCCC[n+]1ccn(C)c1.F[B-](F)(F)F [1-methyl-3-octylimidazolium tetrafluoroborate]  surface tension liquid-gas            28.4

* * *

Reported surface tension liquid-gas by item:
conditions: 303 K, Capillary rise
Reported Metric: surface tension liquid-gas (mN/m)

> print(dat)
                                   molecule  unit.annotation  endpoint.value
1  CCCCCCCC[n+]1ccn(C)c1.[Cl-] [1-methyl-3-octylimidazolium chloride]             mN/m            31.7
2  CCCCCCn1cc[n+](C)c1.F[B-](F)(F)F [1-hexyl-3-methylimidazolium tetrafluoroborate]             mN/m            38.9
3  CCCCn1cc[n+](C)c1.[Cl-] [1-butyl-3-methylimidazolium chloride]             mN/m            47.8
4  CCCCn1cc[n+](C)c1.[I-] [1-butyl-3-methylimidazolium iodide]             mN/m            52.9

* * *

conditions: 308 K, Capillary rise
± gives the expanded uncertainty stated by the source.
Reported Metric: surface tension liquid-gas

> print(dat)
                                   compound             reported.metric   endpoint.value
1  CCCCn1cc[n+](C)c1.F[P-](F)(F)(F)(F)F [1-butyl-3-methylimidazolium hexafluorophosphate]  surface tension liquid-gas  46.9 ± 1.3 mN/m
2  CCCCCCCC[n+]1ccn(C)c1.[Cl-] [1-methyl-3-octylimidazolium chloride]  surface tension liquid-gas    31.5 ± 1 mN/m
3  CCCCCCn1cc[n+](C)c1.F[B-](F)(F)F [1-hexyl-3-methylimidazolium tetrafluoroborate]  surface tension liquid-gas  38.7 ± 1.1 mN/m
4  CCCCCCn1cc[n+](C)c1.F[P-](F)(F)(F)(F)F [1-hexyl-3-methylimidazolium hexafluorophosphate]  surface tension liquid-gas  42.6 ± 1.2 mN/m
5  CCCCn1cc[n+](C)c1.F[B-](F)(F)F [1-butyl-3-methylimidazolium tetrafluoroborate]  surface tension liquid-gas    43 ± 1.2 mN/m
